- System: soybean
- run.description: Phytotoxicity test for upland field crops (foliar treatment test)
- Format: in vivo
- test.settings: 50 g ai/ha, Soybean (14 days after treatment)
# Foliar treatment phytotoxicity, Soybean listing for each entry below
property.label: Foliar treatment phytotoxicity, Soybean

> print(dat)
                                   compound  tested.on                           property.label  data.value
1  Cn1nnnc1NC(=O)c1ccc(C(F)(F)F)nc1OCc1nnnn1C(F)F [Compound No. 1-26]    soybean  Foliar treatment phytotoxicity, Soybean           5
2  Cn1nnc(COCc2nc(C(F)(F)F)ccc2C(=O)N(C(=O)c2ccccc2)c2nnnn2C)n1 [Compound No. 2-68]    soybean  Foliar treatment phytotoxicity, Soybean           5
3  Cn1ncnc1COCc1nc(C(F)(F)F)ccc1C(=O)Nc1nnnn1C [Compound No. 1-102]    soybean  Foliar treatment phytotoxicity, Soybean           8

----------
- Test system: black nightshade
- run.description: Herbicidal activity test against upland field weeds (foliar treatment test)
- Assay type: in vivo
- test.settings: Solanum nigrum, 50 g ai/ha, scale 0-100
property.label: pest or weed control at 50 g/ha (%)

> print(dat)
                                 smiles.repr  data.value
 1  CCn1nnnc1NC(=O)c1ccc(C(F)(F)F)nc1COCc1nc(C(F)(F)F)n(C)n1          98
 2  CON(Cc1nnn(C)n1)Cc1nc(C(F)F)ccc1C(=O)Nc1nnnn1C          95
 3  Cn1cnc(COc2nc(C(F)(F)F)ccc2C(=O)Nc2nnnn2C)n1          95
 4      Cn1nnnc1COc1nc(Cl)ccc1C(=O)Nc1nnnn1C          50
 5  C=Cc1nc(COCc2nc(C(F)(F)F)ccc2C(=O)Nc2nnnn2C)nn1C          80
 6  CON(Cc1nc(C(F)(F)F)ccc1C(=O)Nc1nnnn1C)Cc1ncnn1C          98
 7  Cn1nnnc1NC(=O)c1ccc(C(F)(F)F)nc1COCc1nc(OCC(F)(F)F)n(C)n1          98
 8  CCn1nnc(COCc2nc(C(F)(F)F)ccc2C(=O)Nc2nnnn2C)n1          98
 9  C=CCn1nnnc1NC(=O)c1ccc(C(F)(F)F)nc1COCc1nc(C(F)(F)F)n(C)n1          95
10  Cn1nnc(CNc2nc(C(F)(F)F)ccc2C(=O)Nc2nnnn2C)n1          40
11  Cn1nnc(COCc2nc(C(F)(F)F)ccc2C(=O)N(c2nnnn2C)S(C)(=O)=O)n1          95
12  Cn1cnc(COCc2nc(C(F)(F)C(F)(F)F)ccc2C(=O)Nc2nnnn2C)n1          98
13  CC(=O)N(C(=O)c1ccc(C(F)(F)F)nc1COCc1nnn(C)n1)c1nnnn1C          95
14  Cn1nnc(CN(OCc2ccccc2)c2nc(C(F)(F)F)ccc2C(=O)Nc2nnnn2C)n1          20
15  CON(Cc1nnn(C)n1)Cc1nc(C(F)(F)Cl)ccc1C(=O)Nc1nnnn1C          98
16  Cn1nc(COCc2nc(C(F)(F)F)ccc2C(=O)Nc2nnnn2C)nc1Br          95

----------
- Test system: wheat
- run.description: Phytotoxicity test for upland field crops (foliar treatment test)
- Assay type: in vivo
- test.settings: 100 g ai/ha, Wheat (14 days after treatment)
# Foliar treatment phytotoxicity, Wheat listing for each entry below
property.label: Foliar treatment phytotoxicity, Wheat

> print(dat)
                                    compound  tested.on  data.value
 1  Cn1nnnc1NC(=O)c1ccc(C(F)(F)F)nc1OCc1nnnn1C(F)F      wheat           2
 2  Cn1ncnc1COCc1nc(C(F)(F)F)ccc1C(=O)Nc1nnnn1C      wheat           3
 3  CCOC(=O)OC(C)n1nnn(C)c1=NC(=O)c1ccc(C(F)(F)F)nc1CSCc1nnn(C)n1 (centres unmarked)      wheat           0
 4  CCOC(=O)OC(C)N(C(=O)c1ccc(C(F)(F)F)nc1COCc1nnn(C)n1)c1nnnn1C (centres unmarked)      wheat           2
 5  Cn1nnnc1COc1nc(C(F)(F)F)ccc1C(=O)Nc1nnnn1C      wheat           2
 6  C#CCn1nnnc1NC(=O)c1ccc(C(F)(F)F)nc1COCc1nc(C(F)(F)F)n(C)n1      wheat           0
 7  COC(=O)OC(C)N(C(=O)c1ccc(C(F)(F)F)nc1COCc1ncn(C)n1)c1nnnn1C (centres unmarked)      wheat           0
 8  Cn1nnnc1NC(=O)c1ccc(C(F)(F)F)nc1COCc1nc(C(F)F)n(C)n1      wheat           0
 9  Cn1nnc(COCc2nc(C(F)(F)F)ccc2C(=S)Nc2nnnn2C)n1      wheat           0
10  Cn1nc(COCc2nc(C(F)(F)F)ccc2C(=O)Nc2nnnn2C)nc1Cl      wheat           0
11  CON(Cc1nnn(C)n1)c1nc(C(F)(F)F)ccc1C(=O)Nc1nnnn1C      wheat           3
12  Cn1nnnc1NC(=O)c1ccc(C(F)(F)F)nc1Sc1nnnn1C      wheat           0
13  Cn1nnc(COCc2nc(C(F)(F)Cl)ccc2C(=O)Nc2nnnn2C)n1      wheat           0
14  Cn1nc(COCc2nc(C(F)(F)F)ccc2C(=O)Nc2nnnn2C)nc1CF      wheat           0
15  Cn1nc(COCc2nc(C(F)(F)F)ccc2C(=O)Nc2nnnn2C)nc1C#N      wheat           0
16  Cn1cnc(COCc2nc(C(F)F)ccc2C(=O)Nc2nnnn2C)n1      wheat           0
17  Cn1nnc(CSCc2nc(C(F)(F)F)ccc2C(=O)Nc2nnnn2C)n1      wheat           1
18  Cn1nnnc1COCc1nc(C(F)(F)F)ccc1C(=O)Nc1nnnn1C      wheat           6
19  CON(Cc1nnn(C)n1)Cc1nc(C(F)(F)F)ccc1C(=O)Nc1nnnn1C      wheat           0
20  Cn1nnc(COCc2nc(C(F)F)ccc2C(=O)Nc2nnnn2C)n1      wheat           0
21  Cn1nnc(COCc2nc(C(F)(F)F)ccc2C(=O)Nc2nnnn2C)n1      wheat           0
22  Cn1nc(COCc2nc(C(F)(F)F)ccc2C(=O)Nc2nnnn2C)nc1Br      wheat           0
23  C=CCn1nnnc1NC(=O)c1ccc(C(F)(F)F)nc1COCc1nnn(CC)n1      wheat           0
